experiment: Prodrug in vivo pharmacokinetics in dogs after intravenous administration (LC-MS-MS of prodrug and parent); conditions: beagle, dog, in vivo, iv, 0.7 mg/kg, Vdss, Example 31 in plasma, IV Example 31 at 0.7 mg/kg, Mean
result_type: Vd

In plain terms, O=C(O[C@H](COP(=O)([O-])[O-])C(F)(F)F)N1CCC2(CC1)C[C@@H](NS(=O)(=O)c1ccccc1)CO2.[Na+].[Na+] has a documented Vd of 0.35 L/kg

---

assay: Prodrug in vivo pharmacokinetics in rats after intravenous administration (LC-MS-MS of prodrug and parent); details: Wistar Hann, rat, in vivo, iv, 1.48 mg/kg
result_type: clearance (mL/min/kg)
Give bare numbers, in mL/min/kg.

Entry under test: O=C(O[C@H](COP(=O)([O-])[O-])C(F)(F)F)N1CCC2(CC1)C[C@@H](NS(=O)(=O)c1ccccc1)CO2.[Na+].[Na+] . Its clearance was 566

---

Target: human recombinant FAAH (Homo sapiens, UniProt O00519)
Sequence (O00519 1-579): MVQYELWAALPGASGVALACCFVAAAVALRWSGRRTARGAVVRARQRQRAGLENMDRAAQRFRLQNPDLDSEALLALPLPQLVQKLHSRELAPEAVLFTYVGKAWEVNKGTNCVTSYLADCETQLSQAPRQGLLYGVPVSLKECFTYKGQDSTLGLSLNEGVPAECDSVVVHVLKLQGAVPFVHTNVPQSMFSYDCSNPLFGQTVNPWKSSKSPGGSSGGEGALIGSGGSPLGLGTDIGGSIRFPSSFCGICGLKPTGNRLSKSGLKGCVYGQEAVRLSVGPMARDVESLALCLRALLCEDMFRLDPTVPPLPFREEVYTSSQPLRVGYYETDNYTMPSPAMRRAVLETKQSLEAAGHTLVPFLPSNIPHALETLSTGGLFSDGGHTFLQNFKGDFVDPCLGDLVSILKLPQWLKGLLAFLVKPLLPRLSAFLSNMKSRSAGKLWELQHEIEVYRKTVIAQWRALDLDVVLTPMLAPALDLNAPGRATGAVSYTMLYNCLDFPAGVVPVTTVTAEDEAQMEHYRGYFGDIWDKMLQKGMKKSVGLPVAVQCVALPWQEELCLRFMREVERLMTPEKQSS
Assay: FAAH inhibition enzymatic assay, fluorescent substrate Arachidonoyl-AMC, 30 minute incubation
Details: T = 30 min (30 minute incubation); geometric mean of 2-4 determinations unless otherwise indicated
Hi there, I'd appreciate the recorded IC50 for every entry that follows.

Worked examples, 3 molecules total:
GET /value?item= CN(C(=O)C1CCC1)[C@H]1COC2(CCN(C(=O)O[C@H](CO)C(F)(F)F)CC2)C1 [Example 142] &field=IC50 returns > 30 µM

The reported value for O=C(O[C@H](CO)C(F)(F)F)N1CCC2(CC1)CCN(C(=O)c1ccccc1F)C2 [Example 98] in terms of IC50 is > 30 µM

Lookup result for CN(C(=O)CC1CCC1)[C@H]1COC2(CCN(C(=O)O[C@H](CO)C(F)(F)F)CC2)C1 [Example 143] ; measured IC50: > 30 µM

Now turn to the next molecule.
Noted for C#Cc1ccc(-n2ccc(C3CCN(C(=O)O[C@H](CO)C(F)(F)F)CC3)n2)cc1 [Example 80] : its IC50 reads 7.92 µM

---

molecular target: human recombinant Monoacylglycerol Lipase (Homo sapiens, UniProt Q99685); test: MAGL inhibition enzymatic assay, fluorogenic substrate 7-HCA, IC50 at T=0 min or after 30 minute incubation (T=30 min); type: biochemical; conditions: T = 0 min (substrate added immediately); geometric mean of 2-4 determinations unless otherwise indicated; read-out: MAGL (T = 0 min) IC50
Consider the following partition of reported IC50 into named classes: low (below 30 nM), moderate (30 nM to below 100 nM), high (100 nM or more)

Please review the following examples before continuing.
Query: Please classify: C#Cc1ccc(-n2ccc(C3CCN(C(=O)O[C@H](CO)C(F)(F)F)CC3)n2)cc1
Reply: low

Query: Please let me know in which category the item O=C(O[C@H](CO)C(F)(F)F)N1CCC2(CCCN(Cc3ccc(F)cc3)C2)CC1 belongs.
Reply: high

Query: Tag the class for CC(C)CC(=O)N(C)[C@H]1COC2(CCN(C(=O)O[C@H](CO)C(F)(F)F)CC2)C1
Reply: high

Query: Returns: class label. Input: CN(C1COC2(CCN(C(=O)OC(COP(=O)(O)O)C(F)(F)F)CC2)C1)S(=O)(=O)c1ccccc1 (centres unmarked)
Reply: high

Query: Kindly state the category for this compound: O=C(O[C@H](CO)C(F)(F)F)N1CCC2(CC1)CN(CC1CCCOC1)CCO2 (single isomer, unassigned) [Example 5]
Reply: high

Query: Entry O=C(O[C@H](CO)C(F)(F)F)N1CCC(Oc2ncc(C(F)(F)F)cc2Cl)CC1 belongs to which category?
Reply: low

Read the next record carefully.
Query: Band for the recorded IC50 of O=C(OC(C(F)(F)F)C(F)(F)CO)N1C[C@@H]2[C@H](C1)[C@H]2c1ccn(-c2ccc(F)cc2)n1 (some centres unmarked) ?
Reply: moderate

---

Biological target: human recombinant Monoacylglycerol Lipase (Homo sapiens, UniProt Q99685)
Sequence (Q99685 1-303): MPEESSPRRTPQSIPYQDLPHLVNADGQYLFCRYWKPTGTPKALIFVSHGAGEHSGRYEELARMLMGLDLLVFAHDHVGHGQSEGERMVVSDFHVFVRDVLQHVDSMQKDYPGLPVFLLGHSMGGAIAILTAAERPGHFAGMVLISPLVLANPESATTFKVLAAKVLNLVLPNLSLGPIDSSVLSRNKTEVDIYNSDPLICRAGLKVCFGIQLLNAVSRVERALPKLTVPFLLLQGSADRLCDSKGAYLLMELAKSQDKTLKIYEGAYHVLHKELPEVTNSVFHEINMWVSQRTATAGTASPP
Assay: MAGL inhibition enzymatic assay, fluorogenic substrate 7-HCA, IC50 at T=0 min or after 30 minute incubation (T=30 min)
Type: biochemical
Conditions: T = 0 min (substrate added immediately); geometric mean of 2-4 determinations unless otherwise indicated; read-out: MAGL (T = 0 min) IC50
pIC50: −log10 of the molar value.
We use 7 as the dividing line for pIC50: on or above the line is label 1, below is label 0.

Query: Decide: is the reported value of pIC50 for O=C(OC(CO)C(F)(F)F)N1CCC(c2ccnc(N3CCOCC3)n2)CC1 (stereo not shown) equal to or greater than 7?
Reply: label 0

Query: Is reported pIC50 greater than or equal to 7 here: N#Cc1cccc(C2COC3(CCN(C(=O)O[C@H](CO)C(F)(F)F)CC3)C2)c1 (mixture of isomers)
Reply: label 1

Query: Check the entry O=C(O[C@H](CO)C(F)(F)F)N1CCC2(CC1)CC(Nc1ccccn1)CO2 (stereo partly shown) : does pIC50 equal or exceed 7?
Reply: label 0

Query: Hello, I need to know if CN(C1COC2(CCN(C(=O)O[C@H](CO)C(F)(F)F)CC2)C1)S(=O)(=O)C1CCOCC1 (single isomer, unassigned) [Example 117] has measured pIC50 not below 7. Thanks!
Reply: label 0

Please look at the following molecule next.
Query: Answer whether pIC50 of CN(C1COC2(CCN(C(=O)O[C@H](CO)C(F)(F)F)CC2)C1)S(=O)(=O)c1cccc(F)c1 (single isomer, unassigned) [Example 109] is greater than or equal to 7.
Reply: label 1

---

target: human recombinant Monoacylglycerol Lipase (Homo sapiens); assay: MAGL inhibition enzymatic assay, fluorogenic substrate 7-HCA, IC50 at T=0 min or after 30 minute incubation (T=30 min); format: biochemical; conditions: T = 0 min (substrate added immediately); geometric mean of 2-4 determinations unless otherwise indicated; read-out: MAGL (T = 0 min) IC50
pIC50: −log10 of the molar value.
result_type: pIC50

Examples with their reported pIC50 follow.
The recorded pIC50 for entry CN([C@H]1COC2(CCN(C(=O)O[C@H](CO)C(F)(F)F)CC2)C1)S(=O)(=O)c1cnn(C)c1 equals 6.73

Record O=C(O[C@H](COP(=O)([O-])[O-])C(F)(F)F)N1CCC2(CC1)C[C@@H](NS(=O)(=O)c1ccccc1)CO2.[Na+].[Na+] [Example 31, phosphate, disodium salt] . Reported pIC50: < 5.52

Here is another molecule to look at.
molecule CN(C)CCOP(=O)(O)OC[C@@H](OC(=O)N1CCC2(CC1)CN(S(=O)(=O)c1ccc(F)cc1)CCO2)C(F)(F)F (mixture of isomers) , pIC50 observed: < 5.52

---

target: human recombinant Monoacylglycerol Lipase (Homo sapiens); test: MAGL inhibition enzymatic assay, fluorogenic substrate 7-HCA, IC50 at T=0 min or after 30 minute incubation (T=30 min); assay type: biochemical; settings: T = 30 min (30 minute incubation); geometric mean of 2-4 determinations unless otherwise indicated; read-out: MAGL (T = 30 min) IC50
# if measured IC50 < 20 nM: class 1  # else: class 0

Example entries and their recorded answers appear below.
Query: Check if IC50 falls below 20 nM for O=C(O[C@H](CO)C(F)(F)F)N1CCC2(CC1)CC(c1ccc(F)nc1)CO2 (mixture of isomers) .
Reply: class 0

Query: Regarding O=C(O[C@H](CO)C(F)(F)F)N1CCC2(CC1)CCN(C(=O)c1ccccn1)C2 , kindly confirm whether its IC50 is beneath 20 nM.
Reply: class 0

***
Query: Criterion: IC50 strictly below 20 nM. Is it met by CN(C(=O)c1cccc(F)c1)[C@H]1COC2(CCN(C(=O)O[C@H](CO)C(F)(F)F)CC2)C1 ?
Reply: class 1

Query: hey, is IC50 for O=C(O[C@H](CO)C(F)(F)F)N1CCN(Cc2ccc(F)cc2)CC1 lower than 20 nM or not?
Reply: class 0

Query: Take the compound O=C(OC(C(F)(F)F)C(F)(F)CO)N1C[C@@H]2[C@H](C1)[C@H]2c1ccn(-c2ccc(F)cc2)n1 (stereo partly shown) and say whether its IC50 is less than 20 nM.
Reply: class 1

Query: Lab note: IC50 threshold 20 nM. Does this compound come in strictly under it? CN(C1COC2(CCN(C(=O)O[C@H](CO)C(F)(F)F)CC2)C1)S(=O)(=O)c1cccnc1 (mixture of isomers)
Reply: class 1
